- Test system: UO-31 renal
- assay_details: NCI tumour cell line growth inhibition, 48 h
Answer each item with its documented TGI.

Form field - read-out: TGI; system: UO-31 renal; submitted item: CC1CN=C(c2cccc(OCc3ccc(COc4cccc(C5=NCC(C)N5)c4)cc3)c2)N1 (stereo not drawn)
> 100 µM

Cool, now O=C1c2cc(Cl)ccc2-n2c(noc2=O)C2CSCN12 (stereo not drawn)
> 100 µM

Input "N#Cc1c(=O)c2cccnc2n2c1[nH]c1ccccc12"
> 100 µM

---

- Tested on: SNB-19 CNS
- assay_details: NCI tumour cell line growth inhibition, 48 h
measurement_kind: TGI

# TGI lookup, item "c1ccc2c3c(ccc2c1)CSCc1ccc2ccccc2c1-3"
> 100 µM

What about "CCN(CC)CCOc1ccc(/C=C2\C[C@H]3[C@@H]4CC=C5C[C@@H](OC(C)=O)CC[C@]5(C)[C@H]4CC[C@]3(C)[C@H]2OC(C)=O)cc1OC" ?
30.1 µM

Entry to check: "O=C1c2ccccc2S(=O)(=O)c2ccccc21"
> 100 µM

Now the same for "CC1=NN(c2nc(N)nc(/C(C#N)=C/c3ccncc3)n2)C(C)(C)C1"
> 100 µM

Try the molecule COc1cc(C2C(Cl)C(=O)N2c2ccc(Br)cc2)cc(I)c1O (stereo unspecified)
> 100 µM

Another molecule to check: "Oc1cc2cc(-c3ccccc3)[nH]c2c2ccccc12"
> 70.2 µM

// same read-out, input: "C/C(=N\N=C(N)N)c1c(C(=O)OCCCCCCOC(=O)c2nc3sccn3c2/C(C)=N/N=C(N)N)nc2sccn12"
> 100 µM

Entry "COc1c(O)c(OC)c(C(=O)/C=C/c2ccccc2)c(O)c1OC" please
> 100 µM

Okay, and "Cc1cc(S(=O)(=O)Nc2n[nH]c(Nc3ccccc3)n2)c(S)cc1Cl" ?
> 10 µM

Could you do the same for "O=C(OCc1ccccc1CN1CCOCC1)c1ccc(Br)cc1" , please?
> 100 µM

Same lookup for "Cc1ccc([P+](Cc2ccc([N+](=O)[O-])cc2)(c2ccc(C)cc2)c2ccc(C)cc2)cc1" , please.
13.6 µM

COc1cc(C2SCC(=O)N2NC(=O)c2ccc(NC(C)=O)cc2)cc(OC)c1OC (stereo unspecified) , same question.
> 100 µM

Record: "CCOP(=O)(OCC)/C(C#N)=C\c1cccc2ccccc12"
> 100 µM

Repeat with O=C1c2cc([N+](=O)[O-])ccc2NC2C(O)c3ccccc3N12 (stereo unspecified)
> 100 µM

Now the molecule "CN1C(=O)c2cc(Cl)nc3c(NC(=O)c4cccc(Cl)c4)c(Cl)c(NC(=O)c4cccc(Cl)c4)c1c23"
6.08 µM

Also, CC1=NN(c2ccc(C)cc2)C2(C1)SCC(=O)N2c1nc2ccccc2s1 (stereo unspecified) please.
> 100 µM

---

Can you tell me GI50 for the items I'm about to list?
- Test system: MALME-3M melanoma
- assay_details: NCI tumour cell line growth inhibition, 48 h

Fill in: GI50 of "CN1C(=O)c2cc(Cl)nc3c(NC(=O)c4cccc(Cl)c4)c(Cl)c(NC(=O)c4cccc(Cl)c4)c1c23" is ___
1.66 µM

Moving on to the next compound: "CC[C@]12C=CCN3CC[C@]4(C(=C(C(=O)OC)C1)Nc1cc(O)ccc14)[C@@H]32"
11.8 µM

Please do the same for "O=c1oc(-c2ccc(O)c(O)c2)cc2cc(O)cc(O)c12" as well.
57.5 µM

The measured values listed here are drawn from PubChem BioAssay (NCI).
